Hello, the source for this data is paper PMC10709440, in case you need it.

Target: Drosophila OR85b (Drosophila melanogaster, UniProt Q9VHQ7)
Construct: expressed in transfected cells
Sequence (Q9VHQ7 whole entry, one chain of several): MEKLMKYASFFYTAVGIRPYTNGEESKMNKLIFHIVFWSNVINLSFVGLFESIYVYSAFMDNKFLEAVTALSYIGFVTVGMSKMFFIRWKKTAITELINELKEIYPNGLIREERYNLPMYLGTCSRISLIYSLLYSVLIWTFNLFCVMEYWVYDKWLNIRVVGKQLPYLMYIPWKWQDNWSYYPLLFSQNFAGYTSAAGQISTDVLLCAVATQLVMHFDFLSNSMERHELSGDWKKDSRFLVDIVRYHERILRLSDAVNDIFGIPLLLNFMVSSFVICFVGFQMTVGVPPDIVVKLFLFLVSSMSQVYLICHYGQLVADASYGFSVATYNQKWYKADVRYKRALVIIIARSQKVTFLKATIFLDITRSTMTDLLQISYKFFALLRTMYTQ
Assay: cell-based
Parameters: GCaMP6 calcium fluorescence in stable HEK293 OR+ORCO lines; peak dF normalised to 50 uM VUAA1 (=1)
Conditions: HEK293; relative to 50 uM VUAA1 response; below 0.05 set to 0; read-out: % activation
Decide by activity at 1 µM: equal to or exceeding 8% means 1.0, less means 0.0.

> print(dat)
                                   molecule                                    system  classname
1                               OCCc1ccccc1  Drosophila OR85b (Drosophila melanogaster, UniProt Q9VHQ7)        1.0
2                            CCCCCCCCCCCCCC  Drosophila OR85b (Drosophila melanogaster, UniProt Q9VHQ7)        1.0
3               CCCOC(C)=O [propyl acetate]  Drosophila OR85b (Drosophila melanogaster, UniProt Q9VHQ7)        0.0
4    C=C1CCC2(C(C)C)CC12 (stereo not drawn)  Drosophila OR85b (Drosophila melanogaster, UniProt Q9VHQ7)        0.0
5    CC/C=C\CCOC(C)=O [Z-3-hexenyl acetate]  Drosophila OR85b (Drosophila melanogaster, UniProt Q9VHQ7)        1.0
6  C=C1[C@H]2CC[C@@H]3[C@H]2C(C)(C)CCC[C@]13C [(+)-longifolene]  Drosophila OR85b (Drosophila melanogaster, UniProt Q9VHQ7)        1.0
7  C=C(C)C1CCC2(C)OC2C1 (single isomer, unassigned; (+)) [(+)-limonene oxide]  Drosophila OR85b (Drosophila melanogaster, UniProt Q9VHQ7)        0.0
8  C=C1CC[C@@]23C[C@@H]1C(C)(C)[C@@H]2CC[C@H]3C [(+)-beta-cedrene]  Drosophila OR85b (Drosophila melanogaster, UniProt Q9VHQ7)        0.0

====

Listed compounds paired with reported activity at 100 µM
Molecular target: Drosophila OR71a (Drosophila melanogaster, UniProt Q9VUK5)
Construct: expressed in transfected cells
Sequence (Q9VUK5 whole entry): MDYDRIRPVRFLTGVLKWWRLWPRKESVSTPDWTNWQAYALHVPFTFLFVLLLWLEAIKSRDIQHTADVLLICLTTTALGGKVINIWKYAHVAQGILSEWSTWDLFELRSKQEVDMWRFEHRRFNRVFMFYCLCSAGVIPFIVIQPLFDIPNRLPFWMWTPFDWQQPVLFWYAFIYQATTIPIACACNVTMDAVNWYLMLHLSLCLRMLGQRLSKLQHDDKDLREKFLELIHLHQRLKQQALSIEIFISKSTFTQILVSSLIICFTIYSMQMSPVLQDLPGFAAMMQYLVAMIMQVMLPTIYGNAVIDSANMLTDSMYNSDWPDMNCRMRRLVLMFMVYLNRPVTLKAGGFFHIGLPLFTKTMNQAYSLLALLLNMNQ
Sequence (Q9VNB5 whole entry partner): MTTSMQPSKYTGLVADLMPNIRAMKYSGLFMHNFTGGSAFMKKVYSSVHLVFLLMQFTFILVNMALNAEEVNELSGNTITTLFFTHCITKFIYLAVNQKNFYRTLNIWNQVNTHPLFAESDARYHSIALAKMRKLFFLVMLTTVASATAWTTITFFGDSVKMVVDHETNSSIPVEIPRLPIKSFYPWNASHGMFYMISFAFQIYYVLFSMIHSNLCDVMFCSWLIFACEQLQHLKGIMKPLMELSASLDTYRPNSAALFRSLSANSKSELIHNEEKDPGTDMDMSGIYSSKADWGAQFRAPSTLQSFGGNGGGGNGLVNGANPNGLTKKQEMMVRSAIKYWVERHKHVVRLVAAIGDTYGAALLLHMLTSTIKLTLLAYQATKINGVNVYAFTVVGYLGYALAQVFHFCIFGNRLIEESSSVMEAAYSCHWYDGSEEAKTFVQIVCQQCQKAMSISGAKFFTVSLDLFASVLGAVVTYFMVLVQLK
Assay: cell-based
Parameters: GCaMP6 calcium fluorescence in stable HEK293 OR+ORCO lines; peak dF normalised to 50 uM VUAA1 (=1)
Settings: HEK293; relative to 50 uM VUAA1 response; below 0.05 set to 0; read-out: % activation
Method: Twelve thousand to 18,000 cells were plated into each well of a black wall, transparent bottom 384-well microplate (Greiner) 48 h or 72 h before the measurements and were simultaneously treated with 1 μg/mL doxycycline. […] VOC solutions (VOC buffer with 4× concentration of the final measured VOC concentration, 9 µL/well was injected) were measured on the same wells in a second round with the same protocol. […] On each plate, we recorded the response of each cell line to 50 µM VUAA1. […]
readoutType: activity at 100 µM (%)

> print(dat)
                                   compound                                    system  unitsymbol  result
1             CCCCCOC(C)=O [pentyl acetate]  Drosophila OR71a (Drosophila melanogaster, UniProt Q9VUK5)           %     8.7
2      COC(=O)c1ccccc1O [methyl salicylate]  Drosophila OR71a (Drosophila melanogaster, UniProt Q9VUK5)           %    11.5
3  C=C(C)C1CCC2(C)OC2C1 (single isomer, unassigned; (+)) [(+)-limonene oxide]  Drosophila OR71a (Drosophila melanogaster, UniProt Q9VUK5)           %       0
4  C=C1CC[C@@]23C[C@@H]1C(C)(C)[C@@H]2CC[C@H]3C [(+)-beta-cedrene]  Drosophila OR71a (Drosophila melanogaster, UniProt Q9VUK5)           %       0
5  C=C1[C@H]2CC[C@@H]3[C@H]2C(C)(C)CCC[C@]13C [(+)-longifolene]  Drosophila OR71a (Drosophila melanogaster, UniProt Q9VUK5)           %       0
6  C=C(C)[C@H]1CC=C(C)CC1 [(R)-(+)-limonene]  Drosophila OR71a (Drosophila melanogaster, UniProt Q9VUK5)           %       0
